meta.source: patent US8633168B2

- Tgt: UniProtKB P11712
- Sequence (P11712 whole entry): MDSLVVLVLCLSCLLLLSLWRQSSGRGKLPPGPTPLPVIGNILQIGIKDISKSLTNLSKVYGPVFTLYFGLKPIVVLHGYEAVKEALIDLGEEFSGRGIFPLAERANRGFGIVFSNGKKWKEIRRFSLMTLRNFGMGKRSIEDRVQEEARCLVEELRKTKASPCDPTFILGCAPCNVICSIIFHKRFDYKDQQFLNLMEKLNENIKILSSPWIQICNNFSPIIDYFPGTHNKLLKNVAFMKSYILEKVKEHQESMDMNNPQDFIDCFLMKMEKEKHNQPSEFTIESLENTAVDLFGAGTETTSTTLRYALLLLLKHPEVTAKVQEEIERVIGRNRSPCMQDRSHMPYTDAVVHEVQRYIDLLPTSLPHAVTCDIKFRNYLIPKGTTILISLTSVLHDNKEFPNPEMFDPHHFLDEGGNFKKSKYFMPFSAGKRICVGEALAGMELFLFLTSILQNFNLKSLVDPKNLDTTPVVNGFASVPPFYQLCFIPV
- Assay Overview: Cytochrome P450 inhibition, CYP2C9
- Settings: human, probe fluorometric substrates (not named)
pIC50: −log10 of the molar value.
Assay Readout: pIC50

For the molecule CN(C/C=C\CN)C[C@H]1O[C@@H](n2cnc3c(N)ncnc32)[C@H](F)[C@@H]1O (stereo in doubt) [Compound 1] , what pIC50 is on record? < 5.30

###

- Tgt: CYP3A4 (Homo sapiens, UniProt P08684)
- Sequence (P08684 whole entry): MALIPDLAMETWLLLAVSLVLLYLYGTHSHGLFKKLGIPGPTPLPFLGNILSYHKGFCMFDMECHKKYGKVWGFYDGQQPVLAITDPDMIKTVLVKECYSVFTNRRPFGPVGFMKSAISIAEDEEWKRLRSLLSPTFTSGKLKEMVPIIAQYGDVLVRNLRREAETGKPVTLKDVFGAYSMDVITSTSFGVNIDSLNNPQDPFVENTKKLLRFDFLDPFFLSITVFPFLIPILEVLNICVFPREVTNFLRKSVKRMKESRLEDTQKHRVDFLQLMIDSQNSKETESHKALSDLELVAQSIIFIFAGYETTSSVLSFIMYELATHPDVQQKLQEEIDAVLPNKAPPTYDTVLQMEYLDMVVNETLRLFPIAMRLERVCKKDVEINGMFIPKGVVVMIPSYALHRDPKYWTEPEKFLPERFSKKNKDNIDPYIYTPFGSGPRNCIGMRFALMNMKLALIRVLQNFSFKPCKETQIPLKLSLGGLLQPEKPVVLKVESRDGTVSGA
- Assay Overview: Cytochrome P450 inhibition, CYP3A4
- Settings: human
pIC50: −log10 of the molar value.
Assay Readout: pIC50

For the molecule CN(C/C=C\CN)CC1OC(n2cnc3c(N)ncnc32)C(O)C1O (stereo not shown) [MDL-73811, reference compound] , what pIC50 is on record? < 5.30
